Reference source: PubChem BioAssay (NCI)

- System: OVCAR-8 ovarian
- protocol: NCI tumour cell line growth inhibition, 48 h
Entries and their TGI values follow.

Reported TGI of CCOC(=O)C1SC(=Nc2ccc(Cl)c(Cl)c2)N=C1C (stereo unspecified) : > 100 µM

Turning to the following compound.
Reported TGI of COc1ccccc1NC(=O)C1=C(C)NC(C)=C(C(=O)Nc2ccccc2OC)C1c1ccc(C)cc1 : > 100 µM

###

- Test system: SNB-19 CNS
- protocol: NCI tumour cell line growth inhibition, 48 h
measurement-label: TGI

Solved cases (3 shown):
Bench note, SNB-19 CNS: Cc1c(C)[n+](=O)c(C)c(C)n1[O-] , TGI reads > 100 µM

Bench note, SNB-19 CNS: Cc1cc(-c2nc3ccccc3s2)ccc1NC(=O)[C@H](C)N , TGI reads 28.7 µM

Bench note, SNB-19 CNS: CCCCOC(=O)NC(=O)c1cn(CCSCCOC(=O)NCCCCCCNC(=O)OCCSCCn2cc(C(=O)NC(=O)OCCCC)c(=O)[nH]c2=O)c(=O)[nH]c1=O , TGI reads > 100 µM

Next:
Bench note, SNB-19 CNS: COc1ccccc1NC(=O)C1=C(C)NC(C)=C(C(=O)Nc2ccccc2OC)C1c1ccc(C)cc1 , TGI reads > 100 µM

Bench note, SNB-19 CNS: COC(=O)[C@]12CC[C@@H](C)[C@H](C)[C@@H]1C1=CC[C@@H]3[C@@]4(C)C=C(O)C(=O)[C@@]5(C)COC(=C54)C[C@@]3(C)[C@]1(C)CC2 , TGI reads 37.9 µM

Bench note, SNB-19 CNS: Cc1cc(C)c(O)c(CN(C)Cc2cc(Cl)cc(Cl)c2O)c1 , TGI reads 20.8 µM

Bench note, SNB-19 CNS: N#CC1=C(N)NC(=O)NC12Nc1ccccc1S2 (stereo unspecified) , TGI reads > 100 µM

Bench note, SNB-19 CNS: CC(=O)OC(OC(C)=O)n1cc(C=O)c2ccccc21 , TGI reads > 100 µM

Bench note, SNB-19 CNS: CC(C)c1ccc(/C=C2\CSCC3=C2NC(=S)NC3c2ccc(C(C)C)cc2)cc1 (stereo unspecified) , TGI reads > 100 µM

Bench note, SNB-19 CNS: Oc1ccc(SCc2cc(O)c(O)c(O)c2)cc1 , TGI reads > 100 µM

Bench note, SNB-19 CNS: CO[C@@H]1CC(=O)C2(CC(=O)O[C@@H]2/C=C(\C)CCC=C(C)C)C[C@@H]1O (stereo partly specified) , TGI reads 4.11 µM

Bench note, SNB-19 CNS: O=C(CCl)N1c2ccccc2Sc2ccc3ccccc3c21 , TGI reads 3.09 µM

Bench note, SNB-19 CNS: COc1cccc(N(CN2CC=CC2=O)C(C)=O)c1 , TGI reads > 100 µM

Bench note, SNB-19 CNS: COc1ccc2c(c1)N=C1CSC(c3ccccc3Cl)N1C2 (stereo unspecified) , TGI reads > 100 µM

Bench note, SNB-19 CNS: CCOC(=O)CNC(=O)C(C)NC(=O)C(NC(=O)CC(c1ncc[nH]1)c1ncc[nH]1)C(C)CC (stereo unspecified) , TGI reads > 100 µM

Bench note, SNB-19 CNS: O=C1c2c(n(Cc3ccccc3)c(=O)n2Cc2ccccc2)C(=O)N1Cc1ccccc1 , TGI reads > 100 µM

Bench note, SNB-19 CNS: COC(=O)n1c(=O)n(-c2ccccc2)c(=O)n1C(=O)OC , TGI reads > 100 µM

Bench note, SNB-19 CNS: COc1cc(-c2nc3sc4c(c3c(=O)[nH]2)CCCCCC4)cc(OC)c1OC , TGI reads > 33.2 µM

Bench note, SNB-19 CNS: O=C(Nc1ccc(Cl)cc1)c1cc(-c2ccc(Cl)cc2)c2sc(=O)[nH]c2n1 , TGI reads > 100 µM

Bench note, SNB-19 CNS: O=C1c2c(nc3ccccc3c2-c2ccccc2)CN1Nc1ccccn1 , TGI reads > 100 µM

Bench note, SNB-19 CNS: COc1ccc2c(c1)n([O-])c(C#N)c(N1CCN(c3ccc([N+](=O)[O-])cc3)CC1)[n+]2=O , TGI reads > 100 µM
